Assay remarks: NCI Yeast Anticancer Drug Screen. Data for the rad52 strain (AID 147);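 further: 0% = growth of vehicle-treated control cultures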
Experimental parameters: S. cerevisiae rad52 mutant growth inhibition; at 100.0 µM; hits give high values
Compounds without any hit were thinned out: in the full panel of roughly 79,000, 15% have a hit.

Molecule	Units	growth inhibition
OCCN(CCO)c1ccc2c(c1)Cc1ccccc1-2	%	43
O=C1CC(=O)N(C2CCCCC2)C(=O)N1c1ccccc1S(=O)(=O)Oc1ccccc1	%	64
CC(=O)O[C@H]1C(=O)[C@@]2(C)[C@H]([C@H](OC(=O)c3ccccc3)[C@]3(O)C[C@H](OC(=O)[C@H](O)[C@@H](NC(=O)c4ccccc4)c4ccccc4)C(C)=C1C3(C)C)[C@]1(OC(C)=O)CO[C@@H]1C[C@@H]2O	%	0
CN(Cc1cnc2nc(N)nc(N)c2n1)c1ccc(C(=O)NC(CCC(=O)O)C(=O)O)c2ccccc12 (centres undefined)	%	93

meta.source: PubChem BioAssay (NCI)
